Measured MIC of individual entries
- System: Mycobacterium tuberculosis
- PROTOCOL_SUMMARY: Tested for antibacterial activity against Mycobacterium tuberculosis H37Rv isonicotinic acid hydrazide-resistant strain
- Assay type: functional
# number only, unit µg/mL dropped from output

CC(O)Cn1sc2ccccc2c1=O (stereo not given) : 12.5
O=C(Nc1cc2ccccc2cc1O)c1ccccc1SSc1ccccc1C(=O)Nc1cc2ccccc2cc1O : 12.5

Find the recorded MIC belonging to `NNC(=O)c1ccncc1` and report it. 100

Find the recorded MIC belonging to `O=C(O)Cc1ccc(NC(=O)c2ccccc2SSc2ccccc2C(=O)Nc2ccc(CC(=O)O)cc2)cc1` and report it. 100

Find the recorded MIC belonging to `CCCCCCC(=O)OCCCNC(=O)c1ccccc1SSc1ccccc1C(=O)NCCCOC(=O)CCCCCC` and report it. 1.56

----------
- Test system: Mycobacterium tuberculosis
- PROTOCOL_SUMMARY: Tested for antibacterial activity against Mycobacterium tuberculosis H37Rv isonicotinic acid hydrazide-resistant strain
- Type: functional
Measured log10 of MIC of individual entries
Plainly stated, the numbers are log10 of MIC given in µg/mL.

CCCCCCCCCCNC(=O)c1ccccc1SSc1ccccc1C(=O)NCCCCCCCCCC : 0.50
O=C(Nc1c([N+](=O)[O-])ccc2ccccc12)c1ccccc1SSc1ccccc1C(=O)Nc1c([N+](=O)[O-])ccc2ccccc12 : 1.70
O=c1c2ccccc2sn1CCO : 1.10
CCNC(=O)OCCNC(=O)c1ccccc1SSc1ccccc1C(=O)NCCOC(=O)NCC : 1.40

Find the recorded log10 of MIC belonging to `CCOC(=O)c1ccc(NC(=O)c2ccccc2SSc2ccccc2C(=O)Nc2ccc(C(=O)OCC)cc2)cc1` and report it. 0.50

Find the recorded log10 of MIC belonging to `CCCCCCCCCCCC(=O)OCCCNC(=O)c1ccccc1SSc1ccccc1C(=O)NCCCOC(=O)CCCCCCCCCCC` and report it. -0.11

Find the recorded log10 of MIC belonging to `CCCCCCCC(=O)OCCCNC(=O)c1ccccc1SSc1ccccc1C(=O)NCCCOC(=O)CCCCCCC` and report it. -0.41

----------
- Tested on: Mycobacterium tuberculosis
- PROTOCOL_SUMMARY: Tested for antibacterial activity against Mycobacterium tuberculosis H37Rv isonicotinic acid hydrazide-resistant strain
- Format: functional
RECORDED_ENDPOINT: MIC (µg/mL)
# number only, unit µg/mL dropped from output

# count of solved cases: 5
CCCCc1ccc(NC(=O)c2ccccc2SSc2ccccc2C(=O)Nc2ccc(CCCC)cc2)cc1 : 0.78
CCCC(=O)OCCCNC(=O)c1ccccc1SSc1ccccc1C(=O)NCCCOC(=O)CCC : 3.13
CCOC(=O)CNC(=O)c1ccccc1SSc1ccccc1C(=O)NCC(=O)OCC : 12.5
CN[C@@H]1[C@H](O[C@H]2[C@H](O[C@H]3[C@H](O)[C@@H](O)[C@H](N=C(N)N)[C@@H](O)[C@@H]3N=C(N)N)O[C@@H](C)[C@]2(O)C=O)O[C@@H](CO)[C@H](O[C@@H]2O[C@H](CO)[C@@H](O)[C@H](O)[C@@H]2O)[C@H]1O : 0.78
CC(C)(CO)NC(=O)c1ccccc1SSc1ccccc1C(=O)NC(C)(C)CO : 6.25

Find the recorded MIC belonging to CCCCC(CC)CNC(=O)c1ccccc1SSc1ccccc1C(=O)NCC(CC)CCCC (centres undefined) and report it. 1.56

Find the recorded MIC belonging to `O=C(Nc1ccc2ccccc2c1)c1ccccc1SSc1ccccc1C(=O)Nc1ccc2ccccc2c1` and report it. 1.56

Find the recorded MIC belonging to `O=C(Nc1ccc(Cl)c2ccccc12)c1ccccc1SSc1ccccc1C(=O)Nc1ccc(Cl)c2ccccc12` and report it. 12.5

Find the recorded MIC belonging to CO[C@H]1/C=C/O[C@@]2(C)Oc3c(C)c(O)c4c(O)c(c(/C=N/N5CCN(C)CC5)c(O)c4c3C2=O)NC(=O)/C(C)=C\C=C\[C@H](C)[C@H](O)[C@@H](C)[C@@H](O)[C@@H](C)[C@H](OC(C)=O)[C@@H]1C [RIFAMPIN] and report it. 0.025

Find the recorded MIC belonging to `CC(=O)OCCCNC(=O)c1ccccc1SSc1ccccc1C(=O)NCCCOC(C)=O` and report it. 6.25

Find the recorded MIC belonging to O=C(NCC(O)c1ccc(O)c(O)c1)c1ccccc1SSc1ccccc1C(=O)NCC(O)c1ccc(O)c(O)c1 (centres undefined) and report it. 100

Find the recorded MIC belonging to `CCn1c2ccccc2c2cc(NC(=O)c3ccccc3SSc3ccccc3C(=O)Nc3ccc4c(c3)c3ccccc3n4CC)ccc21` and report it. 1.56

Find the recorded MIC belonging to `CCCCCC(=O)OCCCNC(=O)c1ccccc1SSc1ccccc1C(=O)NCCCOC(=O)CCCCC` and report it. 3.13
